Reference for the values: patent US20250206841A1

kon for assorted binders
# target system: T1, human Trop-2-His protein (human, UniProt P09758 27-274)
# T1 construct: extracellular domain; Assay paragraphs say only 'Trop-2-His'; also called hTrop-2; Kactus Cat #TRP-HM121; not shown: His tag
# T1 sequence (looked up): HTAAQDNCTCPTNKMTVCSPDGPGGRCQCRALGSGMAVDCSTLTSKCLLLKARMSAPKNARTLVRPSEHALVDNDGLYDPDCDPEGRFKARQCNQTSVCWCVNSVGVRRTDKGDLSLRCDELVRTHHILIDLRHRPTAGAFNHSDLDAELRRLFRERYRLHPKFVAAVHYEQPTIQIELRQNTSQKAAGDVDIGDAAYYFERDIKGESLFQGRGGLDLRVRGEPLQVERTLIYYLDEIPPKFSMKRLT
# measurement description: BLI (Gator Prime), LEM supernatant Ab on HFC probe
Number only, in M⁻¹ s⁻¹; omit the unit.

Sample records with kon:
binder	observed
12G6 (antibody, V domains shown, Rabbit-derived clone; LEM construct: VH + rabbit IgG CH1 + human IgG1 CH2-CH3) VH: QEQLKESGGGLVQPGGSLTLSCKASGFDFNNYGVSWVRQAPGKGLEWIGYIYPAYHNTYYATWVNGRFTISSHNAQNTLYLQLNTLTAADTATYFCARDAGNTDYNFNLWGPGTLVTVSS VL: DVVMTQTPASVEVAVGGTVTIKCQASEDIESYLAWYQQKPGQPPKLLIYEASKLASGVSSRFSGGGYGTEFTLTISGVECADAATYYCQQALTIGNVDNPFGGGSEVVVK	386000
10A9 (antibody, V domains shown, Rabbit-derived clone; LEM construct: VH + rabbit IgG CH1 + human IgG1 CH2-CH3) VH: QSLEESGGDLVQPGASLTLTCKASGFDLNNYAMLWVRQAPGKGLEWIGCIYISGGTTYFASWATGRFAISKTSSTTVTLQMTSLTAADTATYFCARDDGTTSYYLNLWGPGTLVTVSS VL: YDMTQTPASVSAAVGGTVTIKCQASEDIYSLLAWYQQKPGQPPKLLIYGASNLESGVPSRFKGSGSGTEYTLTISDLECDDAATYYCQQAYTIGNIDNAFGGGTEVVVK	372000

Q: Entry 62A10 (antibody, V domains shown, Rabbit-derived clone; LEM construct: VH + rabbit IgG CH1 + human IgG1 CH2-CH3) VH: QSLVESGGGLVQPEGSLTLTCKASGFDFNNYAVTWVRQAPGEGLEYIGFIGIRGHIYYANWAKGRFTISKTSSTTMTLQMTSLTVADTATYFCARGGLWTGNSYFDLWGPGTLVTVSS VL: YDMTQTPASVEVAVGGTVTINCQASESISRYLAWYQQKPGQSPKPLIYRASTLASGVPSRFQGSGSGTEYTLTISDLECADAATYYCQQGYGYSTVDNAFGGGTEVVVK : reported kon = ?
Ans: 532000
